B1: ZNF207 (parent)
chain: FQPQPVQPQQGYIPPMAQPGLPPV

Variants of: B1
TEST_DESCRIPTION: protein stability index of a GFP-peptide fusion (GPS, HEK-293T) (PSI 1-6); higher = more stable;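 also: lentivirally expressed fusions sorted by FACS into six bins by GFP to DsRed ratio, PSI derived from sequencing read proportions per bin multiplied by bin number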
EXPERIMENTAL_CONTEXT: c terminus: a fixed tail appended
Each entry below carries its reported protein stability index.
Give the value as a plain number.

Previously resolved entries follow.
MUTANT_LABEL: P8I
protein stability index: 3.1
//
MUTANT_LABEL: P3F
protein stability index: 2.49

Fill blank: measured protein stability index of the variant Q2M is ____.
3.13
